IC50 overview
- systemTested: PRMT5/MEP50 (Homo sapiens)
- Construct: Expressed full-length human Flag-PRMT5/6His-MeP50 protein complex was purified; made in house; host or cells: Spodoptera frugiperda (SF9) insect cells, baculovirus (pDEST8)
- protocolSummary: PRMT5 Biochemical Assay (PRMT5/MEP50 enzyme assay on peptide substrate, 3H-SAM Flashplate)
- measurementSetup: Table D-2; read-out: Biochemical IC50

COc1cc2c(cc1OC)CN(CC(O)COc1cccc(-c3ccc4ncn(C)c4c3)c1)CC2 (centres unmarked) :: > 40000 nM
COc1ccc(Cn2nccc2-c2ccc(OC[C@@H](O)CN3CCc4ccccc4C3)cc2)cc1 :: > 40000 nM
Cn1cc2ccc(-c3cccc(OCC(O)CN4CCc5ccccc5C4)c3)cc2n1 (centres unmarked) :: 101 to 1000 nM

Returns the measured IC50 for the input compound. Input: CS(=O)(=O)c1cccc(-c2cccc(OCC(O)CN3CCc4ccccc4C3)c2)c1 (centres unmarked)
101 to 1000 nM

Entry OC(COC1CCNC1)CN1CCc2ccccc2C1 (centres unmarked) : reported IC50 = ?
> 40000 nM

Which IC50 value belongs to OC(COc1cccc(OCc2ccccc2)c1)CN1CCc2ccccc2C1 (centres unmarked) ?
1000 to 10000 nM

I have this compound here, OC(COc1cccc(-c2cccc3[nH]cnc23)c1)CN1CCc2ccccc2C1 (centres unmarked) , and I need its recorded IC50.
< 100 nM

Please report the recorded IC50 for CC(=O)c1ccc(-c2cccc(OCC(O)CN3CCc4ccccc4C3)c2)cc1 (centres unmarked) .
101 to 1000 nM

====

- systemTested: PRMT5/MEP50 (Homo sapiens, UniProt O14744)
- Construct: Expressed full-length human Flag-PRMT5/6His-MeP50 protein complex was purified; made in house; host or cells: Spodoptera frugiperda (SF9) insect cells, baculovirus (pDEST8)
- Sequence (O14744 with tags, fused parts or gaps): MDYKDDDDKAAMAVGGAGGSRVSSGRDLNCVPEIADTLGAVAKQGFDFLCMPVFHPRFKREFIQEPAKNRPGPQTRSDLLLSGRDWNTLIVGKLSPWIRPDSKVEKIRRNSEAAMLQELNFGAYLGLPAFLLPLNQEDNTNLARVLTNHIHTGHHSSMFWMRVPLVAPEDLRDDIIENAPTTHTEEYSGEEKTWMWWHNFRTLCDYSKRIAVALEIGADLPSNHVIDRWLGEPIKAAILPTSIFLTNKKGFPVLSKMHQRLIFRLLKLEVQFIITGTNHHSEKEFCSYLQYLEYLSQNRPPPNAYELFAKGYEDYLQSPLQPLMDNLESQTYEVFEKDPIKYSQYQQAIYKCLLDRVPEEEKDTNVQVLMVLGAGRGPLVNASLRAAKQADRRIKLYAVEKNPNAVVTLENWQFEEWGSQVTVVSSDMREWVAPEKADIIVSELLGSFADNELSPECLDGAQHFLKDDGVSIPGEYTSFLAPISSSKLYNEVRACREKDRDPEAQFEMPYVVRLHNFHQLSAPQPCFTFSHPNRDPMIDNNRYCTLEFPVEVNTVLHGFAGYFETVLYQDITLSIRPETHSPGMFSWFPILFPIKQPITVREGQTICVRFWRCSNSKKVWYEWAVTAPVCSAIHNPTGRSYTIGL
- Sequence (Q9BQA1 with tags, fused parts or gaps partner limits assumed): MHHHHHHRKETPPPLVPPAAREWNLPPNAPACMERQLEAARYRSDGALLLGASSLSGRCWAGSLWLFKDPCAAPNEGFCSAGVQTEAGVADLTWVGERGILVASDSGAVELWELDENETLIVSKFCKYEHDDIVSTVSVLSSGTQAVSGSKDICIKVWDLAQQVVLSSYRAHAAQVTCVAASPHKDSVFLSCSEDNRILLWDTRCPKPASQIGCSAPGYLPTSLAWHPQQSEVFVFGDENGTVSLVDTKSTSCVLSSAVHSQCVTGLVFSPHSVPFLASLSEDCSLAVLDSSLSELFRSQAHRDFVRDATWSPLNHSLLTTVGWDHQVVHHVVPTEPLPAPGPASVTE
- protocolSummary: PRMT5 Biochemical Assay (PRMT5/MEP50 enzyme assay on peptide substrate, 3H-SAM Flashplate)
- measurementSetup: PRMT5 biochemical assay, Table C-2; read-out: Biochemical IC50
pIC50: −log10 of the molar value.
reportedEndpoint: pIC50

Here is how some compounds turned out for pIC50.
Cc1ccc(N2CCN(CC(O)CN3CCc4ccccc4C3)C(=O)C2)cc1 (centres unmarked) :: 6.00 to 7.00
O=C1CN(c2cccc(Cl)c2)CCN1CC(O)CN1CCc2ccccc2C1 (centres unmarked) :: > 7.00
O=C1CN(Cc2ccccc2)CCN1CC(O)CN1CCc2ccccc2C1 (centres unmarked) :: 5.00 to 6.00

Which measured pIC50 value corresponds to CN1CCN(CC(O)CN2CCc3ccccc3C2)C(=O)C1 (centres unmarked) ?
< 4.30

Fill in: pIC50 of O=C1CN(c2cccc(F)c2)CCN1CC(O)CN1CCc2ccccc2C1 (centres unmarked) is ___
> 7.00

====

- systemTested: PRMT5/MEP50 (Homo sapiens)
- Construct: Expressed full-length human Flag-PRMT5/6His-MeP50 protein complex was purified; made in house; host or cells: Spodoptera frugiperda (SF9) insect cells, baculovirus (pDEST8)
- protocolSummary: PRMT5 Biochemical Assay (PRMT5/MEP50 enzyme assay on peptide substrate, 3H-SAM Flashplate)
- measurementSetup: Table D-2; read-out: Biochemical IC50
pIC50: −log10 of the molar value.
Recorded pIC50 for the following molecules

Could you share which pIC50 value was measured for Cn1cnc2cc(-c3cc(NCC(O)CN4CCc5ccccc5C4)n[nH]3)ccc21 (stereo not shown) ?
6.00 to 7.00

Name the recorded pIC50 for Cn1cnc2ccc(-c3cccc(OCC(O)CN4CCc5ccccc5C4CC(N)=O)c3)cc21 (stereo not shown) .
< 4.40

Query (molecule): OC(COc1cccc(-c2ccc3nc[nH]c3c2)c1)CN1CCc2ccccc2C1 (stereo not shown) ; field requested: pIC50
6.00 to 7.00

====

- systemTested: PRMT5/MEP50 (Homo sapiens)
- Construct: Expressed full-length human Flag-PRMT5/6His-MeP50 protein complex was purified; made in house; host or cells: Spodoptera frugiperda (SF9) insect cells, baculovirus (pDEST8)
- protocolSummary: PRMT5 Biochemical Assay (PRMT5/MEP50 enzyme assay on peptide substrate, 3H-SAM Flashplate)
- measurementSetup: Table D-2; read-out: Biochemical IC50
- Text: S-adenosylmethionine (SAM), S-adenosylhomocysteine (SAH), bicine, KCl, Tween20, dimethylsulfoxide (DMSO), bovine skin gelatin (BSG), and Tris(2-carboxyethyl)phosphine hydrochloride solution (TCEP) were purchased from Sigma-Aldrich at the highest level of purity possible. ^3H-SAM was purchase from American Radiolabeled Chemicals with a specific activity of 80 Ci/mmol 384-well streptavidin Flashplates were purchased from PerkinElmer. […]
pIC50: −log10 of the molar value.
reportedEndpoint: pIC50

Example cases with answers are listed next.
OC(COc1cccc(-c2cccc3c2oc2ccccc23)c1)CN1CCc2ccccc2C1 (centres unmarked) :: 6.00 to 7.00
CN(C(=O)c1cn(C)cn1)c1cccc(OCC(O)CN2CCc3ccccc3C2)c1 (centres unmarked) :: 5.00 to 6.00
CC(OCC(O)CN1CCc2ccccc2C1)c1cccnc1 (centres unmarked) :: 4.40 to 5.00

Switching to the query record.
For PRMT5/MEP50 (Homo sapiens), provide pIC50 of CN(C(=O)c1cnco1)c1cccc(OCC(O)CN2CCc3ccccc3C2)c1 (centres unmarked) please.
5.00 to 6.00

====

- systemTested: PRMT5/MEP50 (Homo sapiens, UniProt O14744)
- Construct: Expressed full-length human Flag-PRMT5/6His-MeP50 protein complex was purified; made in house; host or cells: Spodoptera frugiperda (SF9) insect cells, baculovirus (pDEST8)
- protocolSummary: PRMT5 Biochemical Assay (PRMT5/MEP50 enzyme assay on peptide substrate, 3H-SAM Flashplate)
- measurementSetup: Table A-2; PRMT5/MEP50 4 nM, 3H-SAM 75 nM, peptide 40 nM; read-out: Biochemical IC50
pIC50: −log10 of the molar value.
reportedEndpoint: pIC50

CC(Oc1ccccc1S(N)(=O)=O)C(=O)NCC(O)CN1CCc2ccccc2C1 (stereo not drawn) [Compound A126] :: < 4.30
CC(=O)Nc1ccc(OCC(=O)NCC(O)CN2CCc3ccccc3C2)cc1 (stereo not drawn) [Compound A21] :: 6.00 to 7.00

// next item, pIC50 requested
I would be grateful if you could share the reported pIC50 for CN(c1cccc(OCC(=O)NCC(O)CN2CCc3ccccc3C2)c1)S(C)(=O)=O (stereo not drawn) [Compound A142] .
6.00 to 7.00

====

- systemTested: PRMT5/MEP50 (Homo sapiens)
- Construct: Expressed full-length human Flag-PRMT5/6His-MeP50 protein complex was purified; made in house; host or cells: Spodoptera frugiperda (SF9) insect cells, baculovirus (pDEST8)
- protocolSummary: PRMT5 Biochemical Assay (PRMT5/MEP50 enzyme assay on peptide substrate, 3H-SAM Flashplate)
- measurementSetup: Table E-2; read-out: Biochemical IC50
pIC50: −log10 of the molar value.
The entries below come with measured pIC50 values attached.

Worked cases, answers included:
C[C@@H](Oc1cccc2cccnc12)C(=O)NC[C@H](O)CN1Cc2ccccc2C1 :: > 7.00
O=C(COc1ccccc1-c1cc[nH]n1)NCC(O)CN1Cc2ccccc2C1 (stereo not shown) :: 6.00 to 7.00
O=C(NCC(O)CN1Cc2ccccc2C1)c1cccc(NC2CCOCC2)c1 (stereo not shown) :: 6.00 to 7.00
O=C(COc1cccc2cccnc12)NCC(O)CN1Cc2ccccc2C1 (stereo not shown) :: 6.00 to 7.00
O=C(COc1cccc2cccnc12)NC[C@H](O)CN1Cc2ccccc2C1 :: > 7.00
CC(C)(C)OC(=O)Nc1cccc(C(=O)NCC(O)CN2Cc3ccccc3C2)c1 (stereo not shown) :: 6.00 to 7.00

Note: attention shifts to another entry.
Item under review: CN(C)S(=O)(=O)c1ccccc1OCC(=O)NCC(O)CN1Cc2ccccc2C1 (stereo not shown) . Reported pIC50?
> 7.00

====

- systemTested: PRMT5/MEP50 (Homo sapiens)
- Construct: Expressed full-length human Flag-PRMT5/6His-MeP50 protein complex was purified; made in house; host or cells: Spodoptera frugiperda (SF9) insect cells, baculovirus (pDEST8)
- protocolSummary: PRMT5 Biochemical Assay (PRMT5/MEP50 enzyme assay on peptide substrate, 3H-SAM Flashplate)
- measurementSetup: Table B-2; PRMT5/MEP50 4 nM, 3H-SAM 75 nM, peptide 40 nM; read-out: Biochemical IC50
Form field: IC50 (one value per entry).

CN(C)CCOc1cccc(C(=O)NCC(O)CN2CCc3ccccc3C2)c1 (stereo not drawn) :: < 0.1 µM
O=C(NCC(O)CN1CCc2ccccc2C1)c1cccc(C2CCNC2)c1 (stereo not drawn) :: < 0.1 µM
O=C(NCC(O)CN1CCc2ccccc2C1)c1cccc(NC2COC2)c1 (stereo not drawn) :: 0.101 to 1 µM
O=C(NCC(O)CN1CCc2ccccc2C1)c1cccc(CNC2CCOCC2)c1 (stereo not drawn) :: < 0.1 µM
O=C(NCC(O)CN1CCc2ccccc2C1)c1cc(NC2CCOCC2)ccn1 (stereo not drawn) :: < 0.1 µM
O=C(NCC(O)CN1CCc2ccccc2C1)c1cccc(CN2CCOCC2)c1 (stereo not drawn) :: 0.101 to 1 µM
NS(=O)(=O)c1ccc(C(=O)NCC(O)CN2CCc3ccccc3C2)cc1 (stereo not drawn) :: 0.101 to 1 µM
O=C(NCC(O)CN1CCc2ccccc2C1)c1cccc(CN2CCNCC2)c1 (stereo not drawn) :: < 0.1 µM
O=C(NCC(O)CN1CCc2ccccc2C1)c1cncc(NC2CCOCC2)c1 (stereo not drawn) :: < 0.1 µM
O=C(NC[C@@H](O)CN1CCc2ccccc2C1)c1cccc(NC2CCOCC2)c1 :: 0.101 to 1 µM

API: the following record is the query input.
Reported IC50, molecule CC1(C)CC(Nc2cccc(C(=O)NCC(O)CN3CCc4ccccc4C3)c2)CCO1 (stereo not drawn) : ____
0.101 to 1 µM
